# System: Trypanosoma brucei
# EXPERIMENT_DESCRIPTION: Trypanosoma brucei 72 hour study
# Format: functional, organism-based
# Parameters: scale not given: in the data most compounds retested in dose-response had high values
# DETAILS: 30.3 µM; […]
Hit rate of the full screen: of about 66,000 compounds, about 960 (1.5%) showed an effect of 50% or more. For the sample, strong results were picked, then their nearest neighbours and some compounds at random.
RESULT_TYPE: Percent Effect (%)
Expressed in %, but write only the number.

MOLECULE: Cc1ccccc1CNC(=O)Cn1ncc2c1c(C)nn2C
RESULT_TYPE: Percent Effect
RECORDED_RESULT: -7.192
//
MOLECULE: Cc1cc(SCC(=O)O)nc2nn(CC(F)F)c(C)c12
RESULT_TYPE: Percent Effect
RECORDED_RESULT: -20.88
//
MOLECULE: Cc1ccc(-n2nc(C)c3c2NC(=O)CC3c2cnc(N)s2)cc1 (centres undefined)
RESULT_TYPE: Percent Effect
RECORDED_RESULT: 2.745
//
MOLECULE: CCc1noc(CNc2nc(-c3cccnc3)nc3c2CCNCC3)n1
RESULT_TYPE: Percent Effect
RECORDED_RESULT: 2.358
//
MOLECULE: N#Cc1c(C2CC2)cc(-c2ccc(F)c(F)c2)nc1N
RESULT_TYPE: Percent Effect
RECORDED_RESULT: -90.74

Param readout = Percent Effect; param system = Trypanosoma brucei; param query = `COc1ccc(-c2cc(C3CC3)c(C#N)c(N)n2)cc1F` ; response: value
93.34

Param readout = Percent Effect; param system = Trypanosoma brucei; param query = CC(=O)N1CCCCCC1C1CCN(c2ncccc2C#N)CC1 (centres undefined) ; response: value
13.42

Param readout = Percent Effect; param system = Trypanosoma brucei; param query = `Cc1[nH]c2ccccc2c1-c1ccnc(N[C@H](CO)CC(C)C)n1` ; response: value
57.39

Param readout = Percent Effect; param system = Trypanosoma brucei; param query = CCOc1ccc(CN2CCCC(c3cc4ncccc4[nH]3)C2)cc1 (centres undefined) ; response: value
100.2
